- target.system: T1, FLT-1 IgG (UniProt P17948 27-758)
- T1 construct: Construct only cited from Park et al. 1994; also called FLT-IgG; FLT-1 receptor-IgG chimera; not shown: IgG part of the chimera (captured by anti-human IgG Fc)
- T1 sequence (P17948 27-758): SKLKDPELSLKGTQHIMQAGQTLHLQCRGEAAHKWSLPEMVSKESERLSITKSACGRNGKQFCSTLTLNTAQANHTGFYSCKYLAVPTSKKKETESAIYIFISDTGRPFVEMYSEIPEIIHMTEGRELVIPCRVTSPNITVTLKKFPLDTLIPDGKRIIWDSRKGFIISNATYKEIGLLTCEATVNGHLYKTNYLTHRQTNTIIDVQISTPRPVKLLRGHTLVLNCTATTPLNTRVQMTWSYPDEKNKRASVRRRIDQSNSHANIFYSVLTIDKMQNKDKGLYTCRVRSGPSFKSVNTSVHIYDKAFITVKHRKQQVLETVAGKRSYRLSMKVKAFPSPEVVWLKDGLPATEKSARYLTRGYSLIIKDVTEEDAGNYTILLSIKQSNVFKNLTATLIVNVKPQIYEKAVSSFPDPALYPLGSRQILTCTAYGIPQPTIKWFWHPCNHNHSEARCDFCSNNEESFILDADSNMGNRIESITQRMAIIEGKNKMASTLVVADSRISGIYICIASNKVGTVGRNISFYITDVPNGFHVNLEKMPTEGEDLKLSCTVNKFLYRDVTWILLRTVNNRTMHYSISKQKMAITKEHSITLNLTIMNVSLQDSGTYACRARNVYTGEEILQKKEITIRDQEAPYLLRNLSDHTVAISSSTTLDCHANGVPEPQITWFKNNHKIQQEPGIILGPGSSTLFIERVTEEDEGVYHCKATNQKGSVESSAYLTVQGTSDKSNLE
- test.details: competition with 125I-VEGF165 for FLT-1-IgG, radioligand plate assay
measured.metric: IC50 (ng/mL)

{"binder": "R82A VEGF (ligand, VEGF165 mutant from 293 cells, conditioned medium) APMAEGGGQNHHEVVKFMDVYQRSYCHPIETLVDIFQEYPDEIEYIFKPSCVPLMRCGGCCNDEGLECVPTEESNITMQIMAIKPHQGQHIGEMSFLQHNKCECRPKKDRARQENPCGPCSERRKHLFVQDPQTCKCSCKNTDSRCKARQLELNERTCRCDKPRR", "measured.metric": "IC50", "unit.abbrev": "ng/mL", "observed.measurement": 1.23}
{"binder": "E64S VEGF (ligand, preparation not described further) APMAEGGGQNHHEVVKFMDVYQRSYCHPIETLVDIFQEYPDEIEYIFKPSCVPLMRCGGCCNDSGLECVPTEESNITMQIMRIKPHQGQHIGEMSFLQHNKCECRPKKDRARQENPCGPCSERRKHLFVQDPQTCKCSCKNTDSRCKARQLELNERTCRCDKPRR", "measured.metric": "IC50", "unit.abbrev": "ng/mL", "observed.measurement": 1.9}
{"binder": "E64N, L66S VEGF (ligand, putative extra N-linked glycosylation at position 64, Neo-glycosylation mutant from 293 cells, conditioned medium) APMAEGGGQNHHEVVKFMDVYQRSYCHPIETLVDIFQEYPDEIEYIFKPSCVPLMRCGGCCNDNGSECVPTEESNITMQIMRIKPHQGQHIGEMSFLQHNKCECRPKKDRARQENPCGPCSERRKHLFVQDPQTCKCSCKNTDSRCKARQLELNERTCRCDKPRR", "measured.metric": "IC50", "unit.abbrev": "ng/mL", "observed.measurement": 35.6}
{"binder": "R82A, K84A, H86A VEGF (ligand, VEGF165 mutant from 293 cells, conditioned medium; also called R82A, K84A, H86 VEGF) APMAEGGGQNHHEVVKFMDVYQRSYCHPIETLVDIFQEYPDEIEYIFKPSCVPLMRCGGCCNDEGLECVPTEESNITMQIMAIAPAQGQHIGEMSFLQHNKCECRPKKDRARQENPCGPCSERRKHLFVQDPQTCKCSCKNTDSRCKARQLELNERTCRCDKPRR", "measured.metric": "IC50", "unit.abbrev": "ng/mL", "observed.measurement": 1.7}
{"binder": "D63A, E64A, E67A VEGF (ligand, VEGF165 mutant from 293 cells, conditioned medium) APMAEGGGQNHHEVVKFMDVYQRSYCHPIETLVDIFQEYPDEIEYIFKPSCVPLMRCGGCCNAAGLACVPTEESNITMQIMRIKPHQGQHIGEMSFLQHNKCECRPKKDRARQENPCGPCSERRKHLFVQDPQTCKCSCKNTDSRCKARQLELNERTCRCDKPRR", "measured.metric": "IC50", "unit.abbrev": "ng/mL", "observed.measurement": 44.6}
{"binder": "E64A VEGF (ligand, VEGF165 mutant from 293 cells, conditioned medium) APMAEGGGQNHHEVVKFMDVYQRSYCHPIETLVDIFQEYPDEIEYIFKPSCVPLMRCGGCCNDAGLECVPTEESNITMQIMRIKPHQGQHIGEMSFLQHNKCECRPKKDRARQENPCGPCSERRKHLFVQDPQTCKCSCKNTDSRCKARQLELNERTCRCDKPRR", "measured.metric": "IC50", "unit.abbrev": "ng/mL", "observed.measurement": 0.94}
{"binder": "RIK(82-84)NLS VEGF (ligand, potential N-linked glycosylation site at position 82 (extent of glycosylation not apparent), Neo-glycosylation mutant from 293 cells, conditioned medium; also called R82N, I83L, K84S) APMAEGGGQNHHEVVKFMDVYQRSYCHPIETLVDIFQEYPDEIEYIFKPSCVPLMRCGGCCNDEGLECVPTEESNITMQIMNLSPHQGQHIGEMSFLQHNKCECRPKKDRARQENPCGPCSERRKHLFVQDPQTCKCSCKNTDSRCKARQLELNERTCRCDKPRR", "measured.metric": "IC50", "unit.abbrev": "ng/mL", "observed.measurement": 1.63}
{"binder": "K84A VEGF (ligand, VEGF165 mutant from 293 cells, conditioned medium) APMAEGGGQNHHEVVKFMDVYQRSYCHPIETLVDIFQEYPDEIEYIFKPSCVPLMRCGGCCNDEGLECVPTEESNITMQIMRIAPHQGQHIGEMSFLQHNKCECRPKKDRARQENPCGPCSERRKHLFVQDPQTCKCSCKNTDSRCKARQLELNERTCRCDKPRR", "measured.metric": "IC50", "unit.abbrev": "ng/mL", "observed.measurement": 1.91}
{"binder": "D63A VEGF (ligand, VEGF165 mutant from 293 cells, conditioned medium) APMAEGGGQNHHEVVKFMDVYQRSYCHPIETLVDIFQEYPDEIEYIFKPSCVPLMRCGGCCNAEGLECVPTEESNITMQIMRIKPHQGQHIGEMSFLQHNKCECRPKKDRARQENPCGPCSERRKHLFVQDPQTCKCSCKNTDSRCKARQLELNERTCRCDKPRR", "measured.metric": "IC50", "unit.abbrev": "ng/mL", "observed.measurement": 1.54}
{"binder": "purified CHO-derived VEGF165 (ligand, Homodimer; also called VEGF (CHO cell); wildtype VEGF165 derived from CHO cells) APMAEGGGQNHHEVVKFMDVYQRSYCHPIETLVDIFQEYPDEIEYIFKPSCVPLMRCGGCCNDEGLECVPTEESNITMQIMRIKPHQGQHIGEMSFLQHNKCECRPKKDRARQENPCGPCSERRKHLFVQDPQTCKCSCKNTDSRCKARQLELNERTCRCDKPRR", "measured.metric": "IC50", "unit.abbrev": "ng/mL", "observed.measurement": 0.95}
{"binder": "E67A VEGF (ligand, VEGF165 mutant from 293 cells, conditioned medium) APMAEGGGQNHHEVVKFMDVYQRSYCHPIETLVDIFQEYPDEIEYIFKPSCVPLMRCGGCCNDEGLACVPTEESNITMQIMRIKPHQGQHIGEMSFLQHNKCECRPKKDRARQENPCGPCSERRKHLFVQDPQTCKCSCKNTDSRCKARQLELNERTCRCDKPRR", "measured.metric": "IC50", "unit.abbrev": "ng/mL", "observed.measurement": 0.47}
{"binder": "H86A VEGF (ligand, VEGF165 mutant from 293 cells, conditioned medium) APMAEGGGQNHHEVVKFMDVYQRSYCHPIETLVDIFQEYPDEIEYIFKPSCVPLMRCGGCCNDEGLECVPTEESNITMQIMRIKPAQGQHIGEMSFLQHNKCECRPKKDRARQENPCGPCSERRKHLFVQDPQTCKCSCKNTDSRCKARQLELNERTCRCDKPRR", "measured.metric": "IC50", "unit.abbrev": "ng/mL", "observed.measurement": 1.19}
